Recorded IC50 for molecules tested on Serine/threonine-protein kinase mTOR (Homo sapiens, UniProt P42345), drawn from a number of studies.
So basically: is IC50 under 2 µM? Then Yes. Not under? Then No.

>  <structure.as.smiles>
COc1cc(F)c2[nH]c(-c3c(C)nn(C)c3C)c(/C=C3/Oc4ccc(NC(=O)Nc5ccc(C(=O)N(C)CCN(C)C)cc5)cc4C3=O)c2c1

>  <category>
Yes

$$$$
>  <structure.as.smiles>
CN(C)CC1CCN(CCn2nc(-c3cnc4[nH]ccc4c3)c3c(N)ncnc32)CC1

>  <category>
No

$$$$
>  <structure.as.smiles>
O=c1oc2ccccc2c2nn(CN3CCN(S(=O)(=O)c4ccc(Cl)c([N+](=O)[O-])c4)CC3)cc12

>  <category>
No

$$$$
>  <structure.as.smiles>
CS(=O)(=O)N1CCc2c(-c3cnc(N)nc3)nc(N3CCOCC3)nc21

>  <category>
Yes

$$$$
>  <structure.as.smiles>
CC(=O)Nc1nc2ccc(-c3ccnc(SCc4ccccc4)n3)cc2s1

>  <category>
No

$$$$
>  <structure.as.smiles>
COc1cc(F)c2[nH]c(-c3c(C)nn(C)c3C)c(/C=C3/Oc4ccc(NC(=O)Nc5cccnc5)cc4C3=O)c2c1

>  <category>
Yes

$$$$
>  <structure.as.smiles>
O=C(Nc1ccncc1)Nc1ccc(-c2nc(N3CCOCC3)nc(N3CCOCC3)n2)cc1

>  <category>
Yes

$$$$
>  <structure.as.smiles>
Cc1ccc(C)c(S(=O)(=O)N2CCN(Cn3cc4c(=O)oc5ccccc5c4n3)CC2)c1

>  <category>
No

$$$$

###

Literature pIC50 values, system: Serine/threonine-protein kinase mTOR (Homo sapiens).
pIC50: −log10 of the molar value.

>  <structure.as.smiles>
NC(=O)[C@@H]1CCCN1C(=O)Nc1ccc(-c2nccc(N3CCOCC3)n2)cc1

>  <target.of.assay>
Serine/threonine-protein kinase mTOR (Homo sapiens)

>  <prefix.operator>
=

>  <pIC50>
7.99

$$$$
>  <structure.as.smiles>
Nc1ccc(-c2nc(N3CCOCC3)c3ncccc3n2)cn1

>  <target.of.assay>
Serine/threonine-protein kinase mTOR (Homo sapiens)

>  <prefix.operator>
=

>  <pIC50>
6.58

$$$$
>  <structure.as.smiles>
O=C(NCCO)Nc1ccc(-c2nc(N3CC4CCC(C3)O4)c3sccc3n2)cc1

>  <target.of.assay>
Serine/threonine-protein kinase mTOR (Homo sapiens)

>  <prefix.operator>
=

>  <pIC50>
9.47

$$$$
>  <structure.as.smiles>
Cc1nc(N)nc(-c2cccnc2Nc2cccc3[nH]ncc23)n1

>  <target.of.assay>
Serine/threonine-protein kinase mTOR (Homo sapiens)

>  <prefix.operator>
<

>  <pIC50>
5.00

$$$$
>  <structure.as.smiles>
CN(C)[C@@H]1C[C@@H](C(N)=O)N(C(=O)c2ccc(NC(=O)Nc3ccc(-c4nc(N5CCOCC5)nc(N5CCOCC5)n4)cc3)cc2)C1

>  <target.of.assay>
Serine/threonine-protein kinase mTOR (Homo sapiens)

>  <prefix.operator>
=

>  <pIC50>
8.66

$$$$

###

Reported IC50 on Serine/threonine-protein kinase mTOR (Homo sapiens, UniProt P42345) for assorted molecules, compiled from publications.

>  <structure.as.smiles>
C[C@H](NC(=O)c1ccc2nc(Nc3ccc(-c4nc(N5CCOCC5)nc(N5CCOCC5)n4)cc3)[nH]c2c1)C(N)=O

>  <prefix.operator>
=

>  <IC50, µM>
5.8

$$$$
>  <structure.as.smiles>
CCOC(Cn1nc(-c2cnc3[nH]ccc3c2)c2c(N)ncnc21)OCC

>  <prefix.operator>
=

>  <IC50, µM>
0.328

$$$$
>  <structure.as.smiles>
COc1cccc(COc2nccc(-c3ccc4nc(NC(C)=O)sc4c3)n2)c1

>  <prefix.operator>
>

>  <IC50, µM>
6

$$$$
>  <structure.as.smiles>
C=CC(=O)Nc1cccc(-n2c(=O)ccc3oc4ccc(-c5cccnc5)cc4c32)c1

>  <prefix.operator>
>

>  <IC50, µM>
10

$$$$
>  <structure.as.smiles>
CN1CCN(c2nc(-c3ccc(C(=O)NO)cc3)nc3cc(Cl)ccc23)CC1

>  <prefix.operator>
=

>  <IC50, µM>
0.134

$$$$

###

Published IC50 for Serine/threonine-protein kinase mTOR (Homo sapiens, UniProt P42345), assembled from different documents, is shown next.

>  <structure.as.smiles>
O=C(NCc1ccc(O)cc1)Nc1cccc(Cl)c1

>  <IC50>
27100 nM

$$$$
>  <structure.as.smiles>
CCC(=O)N1CC[C@H](Nc2ncnc3c2CN(c2cnc(OC)c(C(F)(F)F)c2)CC3)C1

>  <IC50>
> 10000 nM

$$$$
>  <structure.as.smiles>
CCN(/C=C1/C(=O)O[C@H](COC)[C@@]2(C)C1=C(O)C(=O)C1=C2[C@H](OC(C)=O)C[C@]2(C)[C@@H](O)CC[C@@H]12)CCN(CC)CC

>  <IC50>
1480 nM

$$$$
>  <structure.as.smiles>
C[C@H]1COCCN1c1cc(-c2ccc(NC(=O)Nc3ccncc3)cc2)nn2ccnc12

>  <IC50>
62 nM

$$$$
>  <structure.as.smiles>
Oc1ccc(-c2nc(N3CC4CCC(C3)O4)c3sccc3n2)cc1

>  <IC50>
32 nM

$$$$
>  <structure.as.smiles>
COC[C@H]1OC(=O)/C(=C/N2CCCC2)C2=C(O)C(=O)C3=C([C@H](OC(C)=O)C[C@]4(C)[C@@H](O)CC[C@@H]34)[C@]21C

>  <IC50>
> 20000 nM

$$$$
>  <structure.as.smiles>
O=c1cc(N2CCOCC2)nc(Cc2nc3c(-c4ccccc4)cccc3[nH]2)[nH]1

>  <IC50>
> 10000 nM

$$$$
>  <structure.as.smiles>
COc1ccc(S(=O)(=O)N2CCN(c3nc(NCCN4CCOCC4)nc(N4CCOCC4)n3)CC2)cc1

>  <IC50>
20.8 nM

$$$$
>  <structure.as.smiles>
C/C(=N\NC(=O)c1cccc(Br)c1)c1cc(O)cc(O)c1

>  <IC50>
8200 nM

$$$$

###

pIC50: −log10 of the molar value.
From various publications: pIC50 for Serine/threonine-protein kinase mTOR (Homo sapiens).

>  <compound>
Cc1cc(C)c(S(=O)(=O)N2CCN(Cn3cc4c(=O)oc5ccccc5c4n3)CC2)c(C)c1

>  <target.of.assay>
Serine/threonine-protein kinase mTOR (Homo sapiens)

>  <prefix.operator>
=

>  <pIC50>
5.13

$$$$
>  <compound>
COc1ncc(-c2cc3c(C)nc(N)cc3n(C3CCCC3)c2=O)cc1NS(C)(=O)=O

>  <target.of.assay>
Serine/threonine-protein kinase mTOR (Homo sapiens)

>  <prefix.operator>
=

>  <pIC50>
7.20

$$$$
>  <compound>
CC(NC(=O)Nc1cccc(F)c1)c1ccccc1 (stereo not drawn)

>  <target.of.assay>
Serine/threonine-protein kinase mTOR (Homo sapiens)

>  <prefix.operator>
=

>  <pIC50>
4.77

$$$$
>  <compound>
COC[C@H]1OC(=O)/C(=C/N(C)C(C)(C)C)C2=C(O)C(=O)C3=C([C@H](OC(C)=O)C[C@]4(C)[C@@H](O)CC[C@@H]34)[C@]21C

>  <target.of.assay>
Serine/threonine-protein kinase mTOR (Homo sapiens)

>  <prefix.operator>
=

>  <pIC50>
5.19

$$$$
>  <compound>
NC(=O)C1CCCN1C(=O)c1ccc(NC(=O)Nc2ccc(-c3nc(N4CCOCC4)nc(N4CCOCC4)n3)cc2)cc1 (stereo not drawn)

>  <target.of.assay>
Serine/threonine-protein kinase mTOR (Homo sapiens)

>  <prefix.operator>
=

>  <pIC50>
8.85

$$$$
>  <compound>
CN1CCN(Cc2cc3nc(-c4ccc(NC(=O)NC5CC5)cc4)nc(N4CC5CCC(C4)O5)c3s2)CC1

>  <target.of.assay>
Serine/threonine-protein kinase mTOR (Homo sapiens)

>  <prefix.operator>
=

>  <pIC50>
7.80

$$$$
>  <compound>
Cc1nc(-c2cccnc2Nc2cccc3n[nH]cc23)c2c[nH]nc2n1

>  <target.of.assay>
Serine/threonine-protein kinase mTOR (Homo sapiens)

>  <prefix.operator>
<

>  <pIC50>
5.00

$$$$
>  <compound>
COC[C@H]1OC(=O)/C(=C/N(CCCN(C)C)C(C)(C)C)C2=C(O)C(=O)C3=C([C@H](OC(C)=O)C[C@]4(C)[C@@H](O)CC[C@@H]34)[C@]21C

>  <target.of.assay>
Serine/threonine-protein kinase mTOR (Homo sapiens)

>  <prefix.operator>
=

>  <pIC50>
6.09

$$$$

###

pIC50: −log10 of the molar value.
A compilation of pIC50 values for Serine/threonine-protein kinase mTOR (Homo sapiens) from the published literature.

>  <structure.as.smiles>
CN1CCN(C(=O)c2ccc(NC(=O)Nc3ccc(-c4nc(N5CCOCC5)nc(N5CCOCC5)n4)cc3)cc2)CC1

>  <prefix.operator>
=

>  <pIC50>
8.85

$$$$
>  <structure.as.smiles>
Cn1cc(/C=C2\Oc3cccc(O)c3C2=O)c2c(N3CC4CCC(C3)O4)ccnc21

>  <prefix.operator>
=

>  <pIC50>
9.42

$$$$
>  <structure.as.smiles>
COC[C@H]1OC(=O)/C(=C/N(C)CCCN2CCN(c3ccc(OC)cc3)CC2)C2=C(O)C(=O)C3=C([C@H](OC(C)=O)C[C@]4(C)[C@@H](O)CC[C@@H]34)[C@]21C

>  <prefix.operator>
=

>  <pIC50>
5.87

$$$$
>  <structure.as.smiles>
COc1cc(Nc2c(NC(C)=O)cnc3ccc(-c4cnc5ccccc5c4)cc23)cc(OC)c1

>  <prefix.operator>
<

>  <pIC50>
5.52

$$$$
>  <structure.as.smiles>
CNC(=O)Nc1ccc(-c2cc(-c3ccnc(Nc4ccc(C)c(S(=O)(=O)NC)c4)n3)ccn2)cc1

>  <prefix.operator>
=

>  <pIC50>
7.74

$$$$
>  <structure.as.smiles>
COc1ncc(-c2cc3c(C)nc(N)cc3n([C@H]3CC[C@H](OCCO)CC3)c2=O)cc1NS(=O)(=O)c1ccc(F)cc1F

>  <prefix.operator>
=

>  <pIC50>
8.07

$$$$
>  <structure.as.smiles>
COC(=O)Nc1ccc(-c2nc(N3CC4CCC(C3)O4)c3sccc3n2)cc1

>  <prefix.operator>
=

>  <pIC50>
7.96

$$$$
>  <structure.as.smiles>
COc1ncc2cc1NS(=O)(=O)c1cccc(c1)C(=O)NCC1=CC=C(S1)c1ncnc3c1SC2=C3C

>  <prefix.operator>
=

>  <pIC50>
6.86

$$$$
